Kindly supply the reported IC50 values for the records listed here.
Biological target: human TYK2 (Homo sapiens, UniProt P29597)
Construct: catalytic domain (amino acids 871-1187; catalog number 08-147)
Sequence (P29597 871-1187): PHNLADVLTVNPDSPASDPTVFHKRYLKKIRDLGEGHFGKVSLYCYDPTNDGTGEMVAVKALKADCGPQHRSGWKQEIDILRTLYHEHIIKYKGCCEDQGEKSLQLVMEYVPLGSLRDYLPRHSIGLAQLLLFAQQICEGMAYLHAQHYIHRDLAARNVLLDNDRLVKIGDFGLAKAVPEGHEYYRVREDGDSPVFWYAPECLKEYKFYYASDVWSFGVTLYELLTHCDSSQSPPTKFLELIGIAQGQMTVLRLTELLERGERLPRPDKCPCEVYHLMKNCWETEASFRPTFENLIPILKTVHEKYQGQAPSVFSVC
Assay: TYK2 inhibition assay
Details: recombinant human TYK2 catalytic domain, polyGT substrate

Consider the compound CCc1cc(-c2ccc(C#N)cc2)ccc1N(C)c1cc2c(cn1)ncn2C [Compound 162] and give its recorded IC50.
0.01 to 100 nM

Specify IC50 for CCc1cc(N2CC[C@@H](F)C2)ncc1N(C)c1cc2c(cn1)ncn2C [Compound 414] and stop.
0.01 to 100 nM

Input CN(c1cc2c(cn1)ncn2C)c1c(F)cc(CC#N)cc1F [Compound 405] , output reported IC50.
0.01 to 100 nM

Give the reported value of IC50 for this record: CCc1cc(C2=CCN(C(=O)[C@@H](C)O)CC2)ccc1N(C)c1cc2c(cn1)ncn2C [Compound 248]
0.01 to 100 nM

Return reported IC50. Input compound: Cc1cc(CO)ccc1N(C)c1cc2c(cn1)ncn2C [Compound 29]
501 to 1000 nM

Could you please provide reported IC50 for CCNC(=O)c1ccc(N(C)c2cc3c(cn2)ncn3C)c(CC)c1 [Compound 102] ? Thanks!
101 to 500 nM

Given Cc1ccc(N(C)c2cc3c(cn2)ncn3C)c(OC(F)F)c1 [Compound 427] , respond with its IC50.
> 1000 nM

Assign IC50 to the following record: CCc1cc(C(C#N)N2CCC2)ccc1N(C)c1cc2c(cn1)ncn2C (centres unmarked) [Compound 394]
0.01 to 100 nM

Specify measured IC50 for CCc1cc(O[C@H]2CCN(S(C)(=O)=O)C2)ccc1N(C)c1cc2c(cn1)ncn2C [Compound 260] .
101 to 500 nM

Provide one value: measured IC50 of CCc1cc(C2CCCC2)ncc1N(C)c1cc2c(cn1)ncn2C [Compound 433]
101 to 500 nM

Kindly indicate its recorded IC50. Item: COc1ccc(COc2ccc(C)c(N(C)c3cc4c(cn3)ncn4C)c2)cc1 [Compound 43]
> 1000 nM

Given the compound CCc1cc(CNS(=O)(=O)C2CC2)ccc1N(C)c1cc2c(cn1)ncn2C [Compound 227] , write its reported IC50.
101 to 500 nM

// fetch IC50 given entry CCc1cc(OCC(N)=O)ccc1N(C)c1cc2c(cn1)ncn2C [Compound 299]
101 to 500 nM

Name the recorded IC50 of the compound listed here: CCC(=O)N1CCC(c2ccc(N(C)c3cc4c(cn3)ncn4C)c(CC)c2)CC1 [Compound 223]
0.01 to 100 nM

Name the recorded IC50 of the compound listed here: COc1cc(-c2cccs2)ncc1N(C)c1cc2c(cn1)ncn2C [Compound 264]
0.01 to 100 nM

Give a short answer stating reported IC50 for CCc1cc(Cn2ccnc2)ccc1N(C)c1cc2c(cn1)ncn2C [Compound 111] .
101 to 500 nM

Supply measured IC50 of CCc1cc(CNS(C)(=O)=O)c(F)cc1N(C)c1cc2c(cn1)ncn2C [Compound 325] in your reply.
101 to 500 nM

Answer with the recorded IC50 of CN(c1cc2c(cn1)ncn2C)c1ccc(C2CN(S(=O)(=O)C(F)F)C2)cc1OC(F)F [Compound 370] only.
101 to 500 nM

Output IC50 of CCc1cc(-c2cnc(NC)nc2)ccc1N(C)c1cc2c(cn1)ncn2C [Compound 211]
0.01 to 100 nM

For the compound CN(c1cc2c(cn1)ncn2C)c1ccc(C2CN(CC(N)=O)C2)cc1OC(F)F [Compound 374] , report IC50.
> 1000 nM

Please look at this compound and report its IC50: CCc1cc(CNS(=O)(=O)CC(F)(F)F)ccc1N(C)c1cc2c(cn1)ncn2C [Compound 244]
0.01 to 100 nM

In one line, give reported IC50 of the entry CCc1cc(CN2CC3(COC3)C2)ccc1N(C)c1cc2c(cn1)ncn2C [Compound 419] .
> 1000 nM

Return reported IC50. Input compound: CCc1cc(C(C#N)N2CCC(C#N)CC2)ccc1N(C)c1cc2c(cn1)ncn2C (centres unmarked) [Compound 435]
0.01 to 100 nM

Give reported IC50 value for CN(c1ccc(/C=C/C#N)cc1)c1cc2c(cn1)ncn2C [Compound 345]
> 1000 nM

In one line, give reported IC50 of the entry CCc1cc(-c2cncc(C#N)c2)ccc1N(C)c1cc2c(cn1)ncn2C [Compound 189] .
101 to 500 nM

Name the recorded IC50 of the item CCc1cc(C2CN(C(=O)C3(C#N)CC3)C2)ccc1N(C)c1cc2c(cn1)ncn2C [Compound 348] in your answer.
> 1000 nM

Let me know recorded IC50 for CCc1cc(C2(COS(=O)(=O)C(F)F)CCNC2)ccc1N(C)c1cc2c(cn1)ncn2C (centres unmarked) [Compound 398] , thanks.
101 to 500 nM

Quote IC50 reported for Cc1ccc(OCCCC#N)cc1N(C)c1cc2c(cn1)ncn2C [Compound 60] please.
501 to 1000 nM

Respond only with IC50 recorded for CCc1cc(CN2CCNC(=O)C2)ccc1N(C)c1cc2c(cn1)ncn2C [Compound 421]
0.01 to 100 nM

Let me know recorded IC50 for CCc1cc(C(C#N)N2CCN(S(C)(=O)=O)CC2)ccc1N(C)c1cc2c(cn1)ncn2C (centres unmarked) [Compound 390] , thanks.
0.01 to 100 nM

Please look at this compound and report its IC50: CCc1cc(C2=CCN(C(=O)C(F)F)CC2)ccc1N(C)c1cc2c(cn1)ncn2C [Compound 197]
0.01 to 100 nM

Look up and state reported IC50 for CCc1cc(C(C#N)N2CCC(F)(F)C2)ccc1N(C)c1cc2c(cn1)ncn2C (centres unmarked) [Compound 441]
0.01 to 100 nM

Consider the compound CCc1cc(C2=CCN(C(=O)Nc3ncns3)CC2)ccc1N(C)c1cc2c(cn1)ncn2C [Compound 257] and give its recorded IC50.
0.01 to 100 nM

Return reported IC50. Input compound: CCc1cc(CNS(=O)(=O)NC)ccc1N(C)c1cc2c(cn1)ncn2C [Compound 376]
101 to 500 nM

# return recorded IC50 for entry CCc1cc(CNC(=O)COC)ccc1N(C)c1cc2c(cn1)ncn2C [Compound 254]
> 1000 nM

###

Biological target: human JAK1 (Homo sapiens, UniProt P23458)
Construct: catalytic domain, amino acids 866-1154; catalog number PV4774
Sequence (P23458 866-1154): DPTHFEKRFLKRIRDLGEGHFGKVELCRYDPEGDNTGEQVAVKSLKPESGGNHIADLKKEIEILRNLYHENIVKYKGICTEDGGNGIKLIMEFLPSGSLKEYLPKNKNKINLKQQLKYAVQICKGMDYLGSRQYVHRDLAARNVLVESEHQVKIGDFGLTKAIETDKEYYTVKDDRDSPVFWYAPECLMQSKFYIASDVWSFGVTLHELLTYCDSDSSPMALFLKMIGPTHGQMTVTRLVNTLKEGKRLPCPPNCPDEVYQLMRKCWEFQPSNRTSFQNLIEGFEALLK
Assay: JAK1 inhibition assay (polyGT substrate / Ulight-JAK1 peptide)
Settings: recombinant human JAK1 catalytic domain; polyGT or Ulight-JAK1 peptide assay
pIC50: −log10 of the molar value.
So I've got a bunch of compounds here, and I need their pIC50 values.

Please give the documented pIC50 of CCc1cc(C2CN(C(C)=O)C2)ncc1N(C)c1cc2c(cn1)ncn2C [Compound 332]
6.30 to 7.00

// fetch pIC50 given entry CCc1cc(C2=CCN(C(=O)C(C)O)CC2)ccc1N(C)c1cc2c(cn1)ncn2C (centres unmarked) [Compound 201]
7.00 to 11.00

Give the reported pIC50 for this compound. CCc1cc(C2CN(C(=O)C(F)(F)F)C2)ccc1N(C)c1cc2c(cn1)ncn2C [Compound 347]
7.00 to 11.00

Answer with reported pIC50 of CCc1cc(N2CC(NS(C)(=O)=O)C2)ncc1N(C)c1cc2c(cn1)ncn2C [Compound 443]
7.00 to 11.00

Report pIC50, nothing else, for this compound: CCc1cc(-c2cn[nH]c2)ccc1N(C)c1cc2c(cn1)ncn2C [Compound 210]
7.00 to 11.00

Return reported pIC50. Input compound: CCc1cc(-c2cn(C)cn2)ccc1N(C)c1cc2c(cn1)ncn2C [Compound 145]
7.00 to 11.00

Please indicate pIC50 recorded for CCc1cc(C2=CCN(C(=O)[C@H](C)O)CC2)ccc1N(C)c1cc2c(cn1)ncn2C [Compound 251]
7.00 to 11.00

State, in one line, measured pIC50 of CCc1cc(C2=CCN(C(=O)Nc3ncns3)CC2)ccc1N(C)c1cc2c(cn1)ncn2C [Compound 257]
7.00 to 11.00

Return value of pIC50 for input CCc1cc(CC(=O)N2CC(C)(C)C2)ccc1N(C)c1cc2c(cn1)ncn2C [Compound 386] , no commentary.
6.30 to 7.00

Specify pIC50 for CCc1cc(CN(CC#N)S(C)(=O)=O)ccc1N(C)c1cc2c(cn1)ncn2C [Compound 388] and stop.
7.00 to 11.00

Give pIC50 for CCc1cc(C(O)C(F)(F)F)ccc1N(C)c1cc2c(cn1)ncn2C (centres unmarked) [Compound 159]
7.00 to 11.00

Read the entry CCc1cc(C(C#N)N2CCC(F)(F)C2)ccc1N(C)c1cc2c(cn1)ncn2C (centres unmarked) [Compound 441] and write its reported pIC50.
7.00 to 11.00

Identify the reported pIC50 for the following entry. CC(C)CCOc1ccc(N(C)c2cc3c(cn2)ncn3C)cc1 [Compound 21]
6.00 to 6.30

Complete the entry with pIC50 for CCc1cc(C2=CCN(C(=O)N(C)CC)CC2)ccc1N(C)c1cc2c(cn1)ncn2C [Compound 206]
7.00 to 11.00

Please give measured pIC50 of the following entry: CCc1cc(CNS(=O)(=O)C(F)F)ncc1N(C)c1cc2c(cn1)ncn2C [Compound 343]
7.00 to 11.00

State, in one line, measured pIC50 of Cc1cc(OCc2ccccc2)ccc1N(C)c1cc2c(cn1)ncn2C [Compound 53]
6.30 to 7.00

Provide one value: measured pIC50 of CCc1cn(C2(CC#N)CN(S(C)(=O)=O)C2)nc1N(C)c1cc2c(cn1)ncn2C [Compound 310]
< 6.00

Note down pIC50 recorded for CN(c1cc2c(cn1)ncn2C)c1ccc(CNS(C)(=O)=O)cc1OC(F)F [Compound 429]
7.00 to 11.00

Tell me its pIC50 given CCc1cc(-c2cnc(OCC#N)nc2)ccc1N(C)c1cc2c(cn1)ncn2C [Compound 217] as the entry.
7.00 to 11.00

Provide only the value of recorded pIC50 for CCc1cc(OC)ccc1N(C)c1cc2c(cn1)ncn2C [Compound 271]
7.00 to 11.00

For the compound CCc1cc(-c2cncc(F)c2)ccc1N(C)c1cc2c(cn1)ncn2C [Compound 133] , report pIC50.
7.00 to 11.00

Specify reported pIC50 for the compound shown: CC(=O)N1CC(c2ccc(N(C)c3cc4c(cn3)ncn4C)c(F)c2)C1 [Compound 278]
6.00 to 6.30

Retrieve pIC50 measured for CCc1cc(-c2cncnc2)ccc1N(C)c1cc2c(cn1)ncn2C [Compound 95] and print it.
7.00 to 11.00

Note down pIC50 recorded for CN(c1ccc(OCC2CCCO2)cc1)c1cc2c(cn1)ncn2C (centres unmarked) [Compound 18]
6.00 to 6.30

Identify measured pIC50 corresponding to CN(c1cc2c(cn1)ncn2C)c1cc(C2CC2)nn1C [Compound 306]
< 6.00

Annotate the compound CCc1cc(C2=CCN(C(=O)C(O)C(F)(F)F)CC2)ccc1N(C)c1cc2c(cn1)ncn2C (centres unmarked) [Compound 230] with its measured pIC50.
7.00 to 11.00

# return recorded pIC50 for entry Cc1ccc(N(C)c2cc3c(cn2)ncn3C)c(OC(F)F)c1 [Compound 427]
7.00 to 11.00

Give reported pIC50 value for CN(c1cc2c(cn1)ncn2C)c1ccccc1C(F)(F)F [Compound 36]
< 6.00

Tell me its pIC50 given CN(c1cc2c(cn1)ncn2C)c1c(F)cc(CC#N)cc1F [Compound 405] as the entry.
7.00 to 11.00

Using the record for CCc1cc(CN(C)S(C)(=O)=O)cc(F)c1N(C)c1cc2c(cn1)ncn2C [Compound 356] , state its measured pIC50.
7.00 to 11.00

Please give measured pIC50 of the following entry: CCc1cc(CN2CCS(=O)(=O)CC2)ccc1N(C)c1cc2c(cn1)ncn2C [Compound 143]
7.00 to 11.00

Given CCc1ccccc1N(CC1CC1)c1cc2c(cn1)ncn2C [Compound 35] , respond with its pIC50.
7.00 to 11.00

Supply reported pIC50 belonging to this compound: CN(c1cc2c(cn1)ncn2C)c1ccc(C2CN(CC(F)(F)F)C2)cc1OC(F)F [Compound 364]
7.00 to 11.00

Retrieve pIC50 measured for CCc1cc(CNCC#N)ccc1N(C)c1cc2c(cn1)ncn2C [Compound 149] and print it.
7.00 to 11.00

Supply reported pIC50 belonging to this compound: CCc1cc(-c2noc(C)n2)ccc1N(C)c1cc2c(cn1)ncn2C [Compound 147]
7.00 to 11.00
